test system: HL-60; assay: Amount of tumor necrosis factor-alpha produced by human leukemia cell line (HL-60) stimulated with 10 nM12-O-tetradecanoylphorbol 13-acetate (TPA) at 0.3 uM, measured by ELISA; format: functional
MEASURED ENDPOINT: Amount of TNF-alpha (%)
// note: answer is a bare numeric in %

These solved cases illustrate the format of a correct answer.
[
  {
    "SMI": "O=C1c2c(F)c(F)c(F)c(F)c2C(=O)N1[C@@H]1CCc2ccccc21",
    "UNITS SYMBOL": "%",
    "READOUT NUMBER": 233
  },
  {
    "SMI": "C[C@H](c1cccc2ccccc12)N1C(=O)c2c(F)c(F)c(F)c(F)c2C1=O",
    "UNITS SYMBOL": "%",
    "READOUT NUMBER": 100
  }
]

Ask: Can you share its Amount of TNF-alpha? I mean this molecule: "C[C@H](C1CCCCC1)N1C(=O)c2c(F)c(F)c(F)c(F)c2C1=O"
Result: 98

Ask: And what about the molecule "CC[C@@H](c1ccccc1)N1C(=O)c2c(F)c(F)c(F)c(F)c2C1=O" ?
Result: 235

Ask: And what about the molecule "CC(=O)Nc1ccc([C@@H](C)N2C(=O)c3c(F)c(F)c(F)c(F)c3C2=O)cc1" ?
Result: 220

Ask: And what about the molecule "C[C@@H](c1ccc([N+](=O)[O-])cc1)N1C(=O)c2c(F)c(F)c(F)c(F)c2C1=O" ?
Result: 268

###

tested on: HL-60; experiment: Amount of tumor necrosis factor-alpha produced by human leukemia cell line (HL-60) stimulated with 10 nM12-O-tetradecanoylphorbol 13-acetate (TPA) at 0.3 uM, measured by ELISA; type: functional
MEASURED ENDPOINT: Amount of TNF-alpha (%)
// note: answer is a bare numeric in %

These solved cases illustrate the format of a correct answer.
[
  {
    "SMI": "C[C@@H](c1cccc2ccccc12)N1C(=O)c2c(F)c(F)c(F)c(F)c2C1=O",
    "MEASURED ENDPOINT": "Amount of TNF-alpha",
    "UNITS SYMBOL": "%",
    "READOUT NUMBER": 101
  },
  {
    "SMI": "C[C@@H](C1CCCCC1)N1C(=O)c2c(F)c(F)c(F)c(F)c2C1=O",
    "MEASURED ENDPOINT": "Amount of TNF-alpha",
    "UNITS SYMBOL": "%",
    "READOUT NUMBER": 124
  },
  {
    "SMI": "O=C1c2c(F)c(F)c(F)c(F)c2C(=O)N1C1Cc2ccccc2C1",
    "MEASURED ENDPOINT": "Amount of TNF-alpha",
    "UNITS SYMBOL": "%",
    "READOUT NUMBER": 104
  },
  {
    "SMI": "CC[C@H](c1ccccc1)N1C(=O)c2c(F)c(F)c(F)c(F)c2C1=O",
    "MEASURED ENDPOINT": "Amount of TNF-alpha",
    "UNITS SYMBOL": "%",
    "READOUT NUMBER": 111
  },
  {
    "SMI": "C[C@H](c1ccc(N)cc1)N1C(=O)c2c(F)c(F)c(F)c(F)c2C1=O",
    "MEASURED ENDPOINT": "Amount of TNF-alpha",
    "UNITS SYMBOL": "%",
    "READOUT NUMBER": 241
  },
  {
    "SMI": "C[C@@H](c1ccc(N)cc1)N1C(=O)c2c(F)c(F)c(F)c(F)c2C1=O",
    "MEASURED ENDPOINT": "Amount of TNF-alpha",
    "UNITS SYMBOL": "%",
    "READOUT NUMBER": 262
  }
]

Ask: Can you share its Amount of TNF-alpha? I mean this compound: "C[C@H](c1ccc([N+](=O)[O-])cc1)N1C(=O)c2c(F)c(F)c(F)c(F)c2C1=O"
Result: 239

Ask: And what about the compound "C[C@H](c1ccccc1)N1C(=O)c2c(F)c(F)c(F)c(F)c2C1=O" ?
Result: 97

Ask: And what about the compound "O=C1c2c(F)c(F)c(F)c(F)c2C(=O)N1[C@H]1CCc2ccccc21" ?
Result: 392

Ask: And what about the compound "C[C@@H](c1ccccc1)N1C(=O)c2c(F)c(F)c(F)c(F)c2C1=O" ?
Result: 143
